assay: Plasma protein binding (Centrifree ultrafiltration); format: in vitro ADME; details: 10.0 uM
Positions of bridges follow the written chain, without caps; N, C: chain ends. Non-standard residues stand in square brackets, D forms with d. Residues, ends and D or L forms follow the SMILES beside them. Nle = CCCC[C@H](N)C(=O)O
What fraction unbound at 5 min, 10 µM was measured for each of the following?
Give bare numbers.

Query string: For the compound shown here, CCCC[C@H](NC(=O)[C@H](CCCNC(=N)N)NC(C)=O)C(=O)N[C@H]1CSSC[C@@H](C(N)=O)NC(=O)[C@H](Cc2c[nH]c3ccccc23)NC(=O)[C@H](CCCNC(=N)N)NC(=O)[C@@H](Cc2ccccc2)NC(=O)[C@H](Cc2c[nH]cn2)NC1=O [CTX-1227, Arg-Nle-cyclo(Cys-His-D-Phe-Arg-Trp-Cys)] (Ac-R[Nle]CH[dF]RWC-NH2; disulfide 3-8 (inferred)) , give the reported fraction unbound at 5 min, 10 µM.
Result string: 0.46

Now for another entry.
Query string: For the compound shown here, CC(=O)N[C@@H](CCCNC(=N)N)C(=O)N[C@H]1CSSC[C@@H](C(N)=O)NC(=O)[C@H](Cc2c[nH]c3ccccc23)NC(=O)[C@H](CCCNC(=N)N)NC(=O)[C@@H](Cc2ccccc2)NC(=O)[C@H](CCCNC(=N)N)NC(=O)[C@@H](C)NC1=O [CTX-1211] (Ac-RC[dA]R[dF]RWC-NH2; disulfide 2-8 (inferred)) , give the reported fraction unbound at 5 min, 10 µM.
Result string: 0.39
